system: Androgen Receptor/SRC-1 Co-activator, AR (gene 367) (UniProt P10275)
Sequence (P10275 whole entry, looked up): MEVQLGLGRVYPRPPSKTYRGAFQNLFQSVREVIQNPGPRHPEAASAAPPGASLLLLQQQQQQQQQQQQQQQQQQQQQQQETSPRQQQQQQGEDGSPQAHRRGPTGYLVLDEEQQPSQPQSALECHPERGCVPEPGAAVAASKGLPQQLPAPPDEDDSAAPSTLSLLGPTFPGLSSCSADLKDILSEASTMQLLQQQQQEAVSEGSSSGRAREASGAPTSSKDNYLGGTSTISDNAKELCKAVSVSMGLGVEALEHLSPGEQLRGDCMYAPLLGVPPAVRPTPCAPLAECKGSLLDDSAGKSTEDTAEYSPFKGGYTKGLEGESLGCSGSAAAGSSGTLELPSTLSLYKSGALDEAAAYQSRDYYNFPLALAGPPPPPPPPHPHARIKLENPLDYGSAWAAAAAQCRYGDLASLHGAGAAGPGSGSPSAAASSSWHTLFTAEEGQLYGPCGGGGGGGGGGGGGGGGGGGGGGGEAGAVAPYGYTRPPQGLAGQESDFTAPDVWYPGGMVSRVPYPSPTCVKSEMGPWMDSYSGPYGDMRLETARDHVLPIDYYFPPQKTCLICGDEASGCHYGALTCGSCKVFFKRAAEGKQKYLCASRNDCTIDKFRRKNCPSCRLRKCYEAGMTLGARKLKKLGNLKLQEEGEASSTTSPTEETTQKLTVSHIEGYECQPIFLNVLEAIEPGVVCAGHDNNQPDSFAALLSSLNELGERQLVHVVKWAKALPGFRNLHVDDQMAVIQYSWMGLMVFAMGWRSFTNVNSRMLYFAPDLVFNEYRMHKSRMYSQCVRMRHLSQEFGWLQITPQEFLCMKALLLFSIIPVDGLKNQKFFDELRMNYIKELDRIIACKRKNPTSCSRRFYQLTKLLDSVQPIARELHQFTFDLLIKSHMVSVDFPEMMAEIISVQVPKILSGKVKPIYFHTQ
assaySummary: OT_AR_ARSRC1_0480: Odyssey Thera (OT) 8-hour HEK293T Protein-Complementation Assay for Androgen Receptor/SRC-1 Co-activator (AID 2283354);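 also: hits raise the complementation signal above DMSO so AC50 marks enhancers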
Records with an inconclusive call do not appear. Active and inactive are the calls of the source. The calls were made as follows: active = hit-call score of the fitted dose curve at least 0.9, where 1 is the maximum; inconclusive = response in the unintended direction; inactive = score below 0.9.
Your reply should match one of these outcome classes. active, inactive

Consider the worked cases shown below.
>>> classassignment("CCCCCCCCCC(C)=O")
"inactive"
>>> classassignment("Oc1ccc(-c2ccccc2)c(Cl)c1")
"active"
>>> classassignment("Cc1ccc(C)c(OCCCC(C)(C)C(=O)O)c1")
"inactive"
>>> classassignment("COc1cc(O)c(C(=O)c2ccccc2)cc1S(=O)(=O)O")
"inactive"
>>> classassignment("CCCCC(CC)COC(=O)/C=C/c1ccc(OC)cc1 (stereo not drawn)")
"inactive"
>>> classassignment("N#Cc1ccc(C(c2ccc(C#N)cc2)n2cncn2)cc1")
"inactive"
>>> classassignment("CN(C)Cc1cc(CN(C)C)c(O)c(CN(C)C)c1")
"inactive"

Now turn to the next molecule.
Data request: Record lookup: outcome of this test for CCc1cccc(C)c1N ?
Data returned: inactive

====

Read-out: Macrophage colony-stimulating factor (MCSF), CSF1 (gene 1435)
assaySummary: BSK_LPS_MCSF: BioMAP Diversity Plus: LPS Assay for Macrophage colony-stimulating factor (MCSF) Biomarker Activity (AID 2283083)
conditionSet: primary human HUVEC with PBMC; actives raise or lower the signal
The source made the active and inactive calls. How the source made its calls: active means hit-call score of the fitted dose curve at least 0.9, where 1 is the maximum; inactive means score below 0.9.
Please answer using one outcome listed in active, inactive

Record excerpt, results attached:
>>> classassignment("CC(CCC(=O)O)(c1ccc(O)cc1)c1ccc(O)cc1")
"inactive"
>>> classassignment("c1ccc2sc(SSN3CCOCC3)nc2c1")
"active"
>>> classassignment("CCc1cccc(C)c1N(C(=O)CS(=O)(=O)O)C(C)COC (stereo unspecified)")
"inactive"
>>> classassignment("Nc1nc(N)nc(-c2ccccc2)n1")
"inactive"
>>> classassignment("CCCCCC1=CCCC1=O")
"inactive"

Data request: What call does the record list for C=CCCCCCCCCC=O ?
Data returned: inactive

====

Read-out: Basic fibroblast growth factor (bFGF), FGF2 (gene 2247)
assaySummary: BSK_MyoF_bFGF: BioMAP Diversity Plus: MyoF Assay for Basic fibroblast growth factor (bFGF) Biomarker Activity (AID 2284246)
conditionSet: primary human lung fibroblasts
Active and inactive are the calls of the source. How the source made its calls: active means hit-call score of the fitted dose curve at least 0.9, where 1 is the maximum; inactive means score below 0.9.
measuredParameter: outcome

Observe how each entry below is paired with its result.
>>> observedresult("CCC1(C)C(=O)N(Cl)C(=O)N1Cl (configuration not stated)")
"inactive"
>>> observedresult("Nc1cccc(N)n1")
"inactive"
>>> observedresult("CCOC(=O)C1=NN(c2ccc(Cl)cc2Cl)C(C)(C(=O)OCC)C1 (configuration not stated)")
"inactive"
>>> observedresult("CCOC(=O)C1=NOC(c2ccccc2)(c2ccccc2)C1")
"inactive"
>>> observedresult("CCCCCC1=CCCC1=O")
"inactive"
>>> observedresult("COC(OC)(C(=O)c1ccccc1)c1ccccc1")
"inactive"

With those in mind, consider the next molecule.
Data request: Return outcome (reported value) for this molecule: C=C(C)C(=O)OCCCCCCCCCCCC
Data returned: inactive

====

assaySummary: ATG_PPRE_CIS: Attagene CIS-FACTORIAL HepG2 Assay for human Peroxisome Proliferator-activated Response Element (PPRE) (AID 2282958)
conditionSet: HepG2 PPRE cis-element reporter, Attagene transcription factor profiling; actives raise or lower the signal
The source made the active and inactive calls. The calls were made as follows: active = hit-call score of the fitted dose curve at least 0.9, where 1 is the maximum; inactive = score below 0.9.
measuredParameter: AC50

Consider the following illustrative entries.
>>> observedresult("O=C(OCCc1ccccc1)c1ccccc1")
"inactive"
>>> observedresult("Nc1ccc(O)c([N+](=O)[O-])c1")
"inactive"
>>> observedresult("c1ccc(-c2nc3ccccc3[nH]2)cc1")
"inactive"
>>> observedresult("Cc1c(O)cccc1O")
"inactive"
>>> observedresult("O=S(=O)(O)c1ccc(Nc2nc(Nc3ccc(C=Cc4ccc(Nc5nc(Nc6ccc(S(=O)(=O)O)cc6)nc(N(CCO)CCO)n5)cc4S(=O)(=O)O)c(S(=O)(=O)O)c3)nc(N(CCO)CCO)n2)cc1")
"inactive"
>>> observedresult("CCC(C)C(=O)OCCc1ccccc1 (centres undefined)")
"inactive"
>>> observedresult("N#Cc1ccc(C(c2ccc(C#N)cc2)n2cncn2)cc1")
"inactive"
>>> observedresult("CC(C)(CO)COC(=O)C(C)(C)CO")
"inactive"

Data request: Answer with the recorded AC50 for the compound listed here: CCOC(=O)OC(=O)OCC
Data returned: inactive

Data request: Given C=CC(=O)OCCCCCCOC(=O)C=C , respond with its AC50.
Data returned: inactive

Data request: Return the recorded AC50 value; entry: CCCC1CCCC(=O)O1 (centres undefined)
Data returned: 11 µM (active)
